Molecular target: T1, human KDR (human, UniProt P35968 20-1356)
T1 construct: whole, on cells; also called VEGFR2; endogenously-expressed KDR in HUVEC cells
T1 sequence (P35968 20-1356): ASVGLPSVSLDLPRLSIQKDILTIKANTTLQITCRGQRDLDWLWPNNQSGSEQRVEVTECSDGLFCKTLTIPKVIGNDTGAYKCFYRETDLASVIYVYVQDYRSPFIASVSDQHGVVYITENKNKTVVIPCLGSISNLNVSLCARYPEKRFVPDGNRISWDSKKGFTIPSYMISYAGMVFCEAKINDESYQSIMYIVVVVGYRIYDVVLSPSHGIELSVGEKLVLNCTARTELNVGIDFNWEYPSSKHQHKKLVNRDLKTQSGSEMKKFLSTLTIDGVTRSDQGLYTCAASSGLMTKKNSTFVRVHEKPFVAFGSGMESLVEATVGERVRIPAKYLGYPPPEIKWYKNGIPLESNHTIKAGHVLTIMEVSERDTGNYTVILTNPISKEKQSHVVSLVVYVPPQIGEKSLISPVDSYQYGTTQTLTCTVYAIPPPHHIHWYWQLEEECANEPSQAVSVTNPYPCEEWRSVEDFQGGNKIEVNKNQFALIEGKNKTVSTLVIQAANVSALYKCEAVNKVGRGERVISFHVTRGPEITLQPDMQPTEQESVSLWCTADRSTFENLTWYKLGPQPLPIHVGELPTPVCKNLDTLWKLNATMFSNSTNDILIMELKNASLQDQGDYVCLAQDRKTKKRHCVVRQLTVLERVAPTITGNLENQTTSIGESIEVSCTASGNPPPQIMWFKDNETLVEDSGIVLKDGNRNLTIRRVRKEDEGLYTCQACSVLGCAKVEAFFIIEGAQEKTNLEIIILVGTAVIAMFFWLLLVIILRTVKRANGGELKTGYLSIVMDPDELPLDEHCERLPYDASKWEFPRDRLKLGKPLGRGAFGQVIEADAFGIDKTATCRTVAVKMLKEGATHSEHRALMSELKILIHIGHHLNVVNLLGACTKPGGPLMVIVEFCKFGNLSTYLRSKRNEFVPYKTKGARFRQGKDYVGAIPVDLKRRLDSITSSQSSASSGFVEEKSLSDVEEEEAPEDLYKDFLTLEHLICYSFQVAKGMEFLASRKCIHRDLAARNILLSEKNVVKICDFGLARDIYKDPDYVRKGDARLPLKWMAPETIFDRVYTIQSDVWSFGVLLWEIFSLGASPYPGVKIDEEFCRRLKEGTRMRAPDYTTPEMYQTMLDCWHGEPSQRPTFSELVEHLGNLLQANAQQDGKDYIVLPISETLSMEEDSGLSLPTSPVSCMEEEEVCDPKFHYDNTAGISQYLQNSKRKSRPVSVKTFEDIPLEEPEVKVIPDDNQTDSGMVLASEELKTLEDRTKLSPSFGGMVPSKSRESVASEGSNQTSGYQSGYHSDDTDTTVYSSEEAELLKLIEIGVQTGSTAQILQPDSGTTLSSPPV
Assay: FACS competition on 293T/human KDR transfectants; antibody 5 ug/mL first, then competitor VEGF165 50 ng/mL; inhibition of VEGF binding
measured-attribute: % Inhibition (%)
Your answer is read as %, so omit the unit and give the number.

binder	measured
31E11 (antibody, V domains shown, Fully human monoclonal antibody from a XenoMouse hybridoma (IgG2 or IgG4 strain), purified) VH: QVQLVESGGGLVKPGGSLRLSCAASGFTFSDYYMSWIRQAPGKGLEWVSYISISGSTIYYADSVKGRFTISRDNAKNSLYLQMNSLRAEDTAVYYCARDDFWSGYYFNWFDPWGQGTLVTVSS VL: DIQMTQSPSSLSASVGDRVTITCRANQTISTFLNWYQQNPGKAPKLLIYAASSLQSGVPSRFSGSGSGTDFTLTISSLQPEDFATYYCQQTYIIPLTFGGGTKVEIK	-8
32F4 (antibody, V domains shown, Fully human monoclonal antibody from a XenoMouse hybridoma (IgG2 or IgG4 strain), purified) VH: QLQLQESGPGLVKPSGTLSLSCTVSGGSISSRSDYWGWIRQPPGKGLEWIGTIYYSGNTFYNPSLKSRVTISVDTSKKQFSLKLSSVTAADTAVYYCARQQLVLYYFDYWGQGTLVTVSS VL: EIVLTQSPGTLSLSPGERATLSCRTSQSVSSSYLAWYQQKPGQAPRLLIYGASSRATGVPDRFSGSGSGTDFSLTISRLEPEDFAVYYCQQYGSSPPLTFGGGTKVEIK	14
27A3 (antibody, V domains shown, Fully human monoclonal antibody from a XenoMouse hybridoma (IgG2 or IgG4 strain), purified) VH: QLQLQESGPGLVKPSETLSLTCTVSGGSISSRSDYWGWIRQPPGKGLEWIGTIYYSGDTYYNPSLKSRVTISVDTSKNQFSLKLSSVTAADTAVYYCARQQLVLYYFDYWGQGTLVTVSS VL: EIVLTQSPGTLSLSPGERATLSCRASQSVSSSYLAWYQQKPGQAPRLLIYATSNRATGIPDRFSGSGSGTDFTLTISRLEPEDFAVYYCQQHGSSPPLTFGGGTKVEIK	9
21H6 (antibody, V domains shown, Fully human monoclonal antibody from a XenoMouse hybridoma, purified) VH: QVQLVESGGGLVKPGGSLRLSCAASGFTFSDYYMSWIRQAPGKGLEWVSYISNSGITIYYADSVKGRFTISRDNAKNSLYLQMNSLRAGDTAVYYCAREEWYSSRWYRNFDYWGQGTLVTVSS VL: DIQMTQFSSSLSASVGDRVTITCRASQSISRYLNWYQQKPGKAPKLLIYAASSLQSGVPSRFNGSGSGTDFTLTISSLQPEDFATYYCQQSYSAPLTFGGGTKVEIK	-3
24B3 (antibody, V domains shown, Fully human monoclonal antibody from a XenoMouse hybridoma (IgG2 or IgG4 strain), purified) VH: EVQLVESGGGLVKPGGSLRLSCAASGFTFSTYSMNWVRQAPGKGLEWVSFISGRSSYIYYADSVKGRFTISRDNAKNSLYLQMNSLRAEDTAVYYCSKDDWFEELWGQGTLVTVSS VL: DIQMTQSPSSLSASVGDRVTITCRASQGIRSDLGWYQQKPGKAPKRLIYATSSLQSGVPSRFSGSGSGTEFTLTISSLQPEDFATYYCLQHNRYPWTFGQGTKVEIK	27

API: the following record is the query input.
Inquiry: State the recorded % Inhibition for this entry: 33E1 (antibody, V domains shown, Fully human monoclonal antibody from a XenoMouse hybridoma (IgG2 or IgG4 strain), purified) VH: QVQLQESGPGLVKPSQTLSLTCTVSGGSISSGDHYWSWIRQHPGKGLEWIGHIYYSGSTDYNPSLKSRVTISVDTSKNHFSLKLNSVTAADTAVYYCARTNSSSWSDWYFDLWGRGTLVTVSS VL: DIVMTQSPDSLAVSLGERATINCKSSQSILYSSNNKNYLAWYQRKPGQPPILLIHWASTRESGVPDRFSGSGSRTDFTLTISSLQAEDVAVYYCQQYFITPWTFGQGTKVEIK
Reply text: -15
